Biological target: ABI1 (Arabidopsis thaliana, UniProt P49597)
Sequence (P49597 whole entry): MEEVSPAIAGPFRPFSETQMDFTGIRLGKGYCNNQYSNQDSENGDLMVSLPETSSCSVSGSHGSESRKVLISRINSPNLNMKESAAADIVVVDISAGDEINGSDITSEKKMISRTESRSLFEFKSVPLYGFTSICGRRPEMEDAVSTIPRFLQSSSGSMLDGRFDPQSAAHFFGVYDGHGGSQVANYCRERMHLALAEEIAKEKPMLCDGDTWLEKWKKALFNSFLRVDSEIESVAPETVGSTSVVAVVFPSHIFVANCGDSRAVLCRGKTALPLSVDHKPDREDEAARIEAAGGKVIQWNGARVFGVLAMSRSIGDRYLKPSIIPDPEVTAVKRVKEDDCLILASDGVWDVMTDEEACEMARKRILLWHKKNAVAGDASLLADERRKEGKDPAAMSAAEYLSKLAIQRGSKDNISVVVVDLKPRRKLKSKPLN
Experiment: Ser/Thr phosphatase assay (Promega) with phosphopeptide substrate, six-concentration IC50
measurement_name: IC50 (µM)
# number only, unit µM dropped from output

Exercise: Provide the documented IC50 with ABI1 (Arabidopsis thaliana, UniProt P49597) as the system for NCCOc1cc(C(=O)Nc2cc(OCCN)c3ccccc3n2)nc(C(=O)Nc2cc(OCCN)c3ccccc3n2)c1 [ZINC59151964]
Solution: 54
